Target: Human liver cathepsin D (Homo sapiens, UniProt P07339)
Construct: purchased Athens Research and Technology, Athens, Ga; host or cells: human liver
Sequence (P07339 169-412 limits assumed): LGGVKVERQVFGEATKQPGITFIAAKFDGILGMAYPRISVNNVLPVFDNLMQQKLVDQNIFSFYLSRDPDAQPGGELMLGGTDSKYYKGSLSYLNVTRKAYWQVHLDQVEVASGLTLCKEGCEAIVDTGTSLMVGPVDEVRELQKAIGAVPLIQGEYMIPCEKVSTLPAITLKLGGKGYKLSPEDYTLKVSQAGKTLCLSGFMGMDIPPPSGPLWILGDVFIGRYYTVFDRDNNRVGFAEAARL
Sequence (P07339 65-161 limits assumed): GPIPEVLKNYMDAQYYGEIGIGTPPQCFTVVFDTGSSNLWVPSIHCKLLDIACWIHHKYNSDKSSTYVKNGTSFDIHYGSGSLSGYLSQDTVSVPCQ
Assay: Cathepsin D inhibition, fluorometric assay (Tables 5 and 6)
Format: biochemical
Conditions: Compound Stock Concentration 8.3 μg/ml
property-label: inhibition at 8.3 µg/mL (stock) (%)

Recorded inhibition at 8.3 µg/mL (stock) (compound CCOc1cc(C=C2SC(=S)N(C)C2=O)ccc1O [Example 88] ): 82

Recorded inhibition at 8.3 µg/mL (stock) (compound CCOc1cc(C=C2SC(=S)N(N(C)C)C2=O)cc(CSc2ccccc2)c1O [Example 89] ): 71

Recorded inhibition at 8.3 µg/mL (stock) (compound CCOc1cc(C=C2SC(=S)N(C)C2=O)cc(CSc2ccccc2)c1O [Example 73] ): 76

Recorded inhibition at 8.3 µg/mL (stock) (compound O=C1NC(=S)SC1=Cc1ccc(Oc2ccccc2)cc1 [Example 5] ): 100

Data credit: patent US5523314A
